Where do the numbers come from? From ChEMBL document CHEMBL1201862.

Test system: U-251
method: NCI tumour cell line growth inhibition, 48 h
Activity calls are given as the source filed them. No stated cut-off is given here; in the data, active = GI50 up to about 1.1 µM and inactive = higher.
measure.name: GI50

Some entries whose results are on file:
{"compound": "CSc1cc(Cl)c(C)cc1S(=O)(=O)NC(=O)NNc1ccc(F)c(Cl)c1", "GI50": "> 100 µM (inactive)"}
{"compound": "Cn1c(=O)c2nc(CCCCc3nc4c(=O)n(C)c(=S)n(C)c4[nH]3)[nH]c2n(C)c1=S", "GI50": "57.4 µM (inactive)"}
{"compound": "COC(=O)C1=CN(C2CCCCC2)C2(c3ccccc3)c3ccccc3C(=O)OC(=O)C12 (stereo not given)", "GI50": "99.3 µM (inactive)"}

Would you kindly look at the next entry?
What the record says about `O=[N+]([O-])c1ccc(N/N=C/c2ccc(OCCCCCCCCCCCO)cc2)c([N+](=O)[O-])c1` : GI50 is 2.37 µM (inactive)
